- Procedure Details: CCTE_Deisenroth_DEVTOX-GLR_Endo_CellCount: Viability Assessment in CCTE's DevTox GLR-Endo Assay, Deisenroth Lab (AID 2284420)
The source made the active and inactive calls. How the source made its calls: active means hit-call score of the fitted dose curve at least 0.9, where 1 is the maximum; inactive means score below 0.9.
Measured Endpoint: AC50

> print(dat)
                           molecular.string  measured.endpoint           reading
1                Cn1c(=O)c2c(ncn2C)n(C)c1=O               AC50          inactive
2  Nc1nc2ncc(CNc3ccc(C(=O)N[C@@H](CCC(=O)O)C(=O)O)cc3)nc2c(=O)[nH]1               AC50          inactive
3                                  NC(=O)NO               AC50  61.3 µM (active)
4  CC[C@H](C)C(=O)O[C@H]1C[C@@H](C)C=C2C=C[C@H](C)[C@H](CC[C@@H]3C[C@@H](O)CC(=O)O3)[C@H]21               AC50  2.81 µM (active)
5  O=C(O)c1cc(N=Nc2ccc(S(=O)(=O)Nc3ccccn3)cc2)ccc1O               AC50          inactive
